subject of test: human TdT (Homo sapiens)
Construct: purchased Trevigen (Gaithersburg, MD)
Sequence (P04053 whole entry): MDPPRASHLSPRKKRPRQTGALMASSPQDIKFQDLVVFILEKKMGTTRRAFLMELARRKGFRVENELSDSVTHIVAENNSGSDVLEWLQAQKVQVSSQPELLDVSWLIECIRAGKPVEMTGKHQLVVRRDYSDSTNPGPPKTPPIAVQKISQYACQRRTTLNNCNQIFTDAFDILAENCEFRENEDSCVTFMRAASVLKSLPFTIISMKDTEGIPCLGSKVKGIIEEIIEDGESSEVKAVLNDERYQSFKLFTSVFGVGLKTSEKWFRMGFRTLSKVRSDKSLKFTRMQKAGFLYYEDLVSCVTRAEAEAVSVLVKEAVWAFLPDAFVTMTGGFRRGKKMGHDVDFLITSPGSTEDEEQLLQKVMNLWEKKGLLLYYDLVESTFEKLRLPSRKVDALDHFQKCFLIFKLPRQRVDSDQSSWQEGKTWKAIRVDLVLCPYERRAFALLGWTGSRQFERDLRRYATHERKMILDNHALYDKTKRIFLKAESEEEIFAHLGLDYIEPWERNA
assay summary: Terminal transferase assay, TdT
Format: biochemical
particulars: human TdT, Mn2+ as cofactor; read-out: ID50 (µM) Mn2+
Experimental: Recombinant full-length human DNA polymerase λ and β were generated and purified as described. […] Terminal Transferase Assay. […] Terminal transferase activity was monitored in the presence of 10% DMSO or in the presence of increasing amounts of inhibitors dissolved in DMSO. […] Insoluble radioactive material was determined by scintillation counting using Trilux beta-counter (PerkinElmer) as described. […]
reported property: IC50 (µM)

(a) O=C(/C=C(\O)C(=O)O)/C=C/c1cn(Cc2ccc(F)cc2)cc1-c1ccccc1
(b) O=C(/C=C/c1cc(C(=O)c2ccc([N+](=O)[O-])cc2)cn1Cc1ccc(F)cc1)/C=C(/O)C(=O)O
(c) COc1cc(C(=O)c2c[nH]c(/C=C/C(=O)/C=C(\O)C(=O)O)c2)cc(OC)c1OC
(d) O=C(O)/C(O)=C/C(=O)c1cc(-c2ccccc2)cn1Cc1ccc(F)cc1 [Compound 10b]
Sort the items above on IC50, descending. State the ranking by listing the labels in the requested order.
b, d, a, c
(b: 7.71 µM, d: 3.25 µM, a: 0.66 µM, c: 0.38 µM)

Values from paper PMC12150604
